The measured values listed here are drawn from patent US10519134B2.

Molecular target: MAGL (Mus musculus)
Construct: Proteomes (mouse brain membrane fraction or cell lysates); from tissue; host or cells: mouse brain membrane fraction (or cell lysates)
Sequence (O35678 whole entry): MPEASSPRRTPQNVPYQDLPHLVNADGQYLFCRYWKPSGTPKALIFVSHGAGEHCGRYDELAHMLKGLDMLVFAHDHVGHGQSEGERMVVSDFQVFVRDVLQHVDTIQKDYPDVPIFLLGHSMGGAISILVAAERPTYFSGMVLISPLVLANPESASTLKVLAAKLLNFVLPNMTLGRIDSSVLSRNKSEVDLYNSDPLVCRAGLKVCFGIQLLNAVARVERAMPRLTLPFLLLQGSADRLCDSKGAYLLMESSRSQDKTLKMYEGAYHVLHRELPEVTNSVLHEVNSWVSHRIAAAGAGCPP
Assay: In vitro competitive activity-based protein profiling (mouse), MAGL gel band
Assay type: biochemical
Conditions: read-out: MAGL % inh. 1 μM
A collection of compounds and their measured inhibition at 1 µM

Here are 8 compounds together with their reported answers.
compound	result
CC(=O)Nc1ccn(C(=O)N2CCC3(CCCN3Cc3ccc(Cl)c(N4CCOCC4)c3)CC2)n1	≥ 75%
CC(=O)Nc1ccn(C(=O)N2CCC3(CCCN3Cc3ccc(C(F)(F)F)cc3N3CCN(C(C)=O)CC3)CC2)n1	≥ 75%
CC(=O)Nc1ccn(C(=O)N2CCC3(CCCN3Cc3ccc(Cl)cc3N3CCC4(CCOCC4)C3)CC2)n1	≥ 75%
Cc1ccc(CN2CCN(C(=O)n3ccc(NS(C)(=O)=O)n3)CC2)c(N2CCOCC2)c1	≥ 75%
CS(=O)(=O)Nc1ccn(C(=O)N2CCC3(CCCN3Cc3ccc(C(F)(F)F)cc3N3C[C@H]4CC[C@@H](C3)O4)CC2)n1	≥ 75%
CC(=O)Nc1ccn(C(=O)N2CCN(Cc3ccc(Cl)cc3-c3nnn[nH]3)CC2)n1	≥ 75%
CC(=O)Nc1ccn(C(=O)N2CCC3(CCCN3Cc3cc(OC4CCN(C5CC5)CC4)cc(C(F)(F)F)c3)CC2)n1	≥ 75%
CC(=O)Nc1ccn(C(=O)N2CCN(Cc3ccc(Cl)cc3N3CCOCC3)CC2)n1	≥ 75%

So for CC(=O)Nc1ccn(C(=O)N2CCC3(CCCN3Cc3ccc4c(c3)COC4)CC2)n1 , the logged inhibition at 1 µM turned out to be ≥ 75%

So for CC(=O)Nc1ccn(C(=O)N2CCC3(CCCN3Cc3ccc4c(c3)OCCO4)CC2)n1 , the logged inhibition at 1 µM turned out to be ≥ 75%

So for CS(=O)(=O)Nc1ccn(C(=O)N2CCN(Cc3ccc(C(F)(F)F)cc3-c3nnn[nH]3)CC2)n1 , the logged inhibition at 1 µM turned out to be 50 to 75%

So for CS(=O)(=O)Nc1ccn(C(=O)N2CCN(Cc3ccc(C(F)(F)F)cc3N3CCN(CC(=O)O)CC3)CC2)n1 , the logged inhibition at 1 µM turned out to be 50 to 75%
